Biological target: HLA-B*48:01
Assay: IEDB peptide-MHC binding, purified MHC/direct/fluorescence; filed as Kd, often an IC50 or EC50 that approximates it; bounds were set here for any values at or beyond the usual limits of such assays
Details: source organism: Mycobacterium tuberculosis
Reported values of Kd for individual entries

[
  {
    "POLYMER_SEQUENCE": "MPRLSRNAA",
    "Kd": "≥ 20 µM"
  }
]

Attention now shifts to the item below.
I'd like to know its Kd. The sequence in question is RPPMVTSGL
≥ 20 µM

* * *

Target: HLA-B*27:05
Assay: IEDB peptide-MHC binding, purified MHC/direct/fluorescence; filed as Kd, often an IC50 or EC50 that approximates it; bounds were set here for any values at or beyond the usual limits of such assays
Conditions: source organism: Yellow fever virus 17D
EXPERIMENTAL_ENDPOINT: Kd

I'd like to know its Kd. The sequence in question is VRGGMVAPL
≥ 20 µM

* * *

Target: HLA-A*03:01
Assay: IEDB peptide-MHC binding, purified MHC/competitive/radioactivity; filed as Kd, often an IC50 or EC50 that approximates it; bounds were set here for any values at or beyond the usual limits of such assays
Conditions: source organism: Dengue virus 3 Martinique/1243/1999
EXPERIMENTAL_ENDPOINT: Kd (nM)
Give your result in nM as a bare value.

I'd like to know its Kd. The sequence in question is AMCTNTFVLK
20.3

* * *

Target: HLA-B*44:02
Experiment: IEDB peptide-MHC binding, purified MHC/competitive/radioactivity; filed as Kd, often an IC50 or EC50 that approximates it; bounds were set here for any values at or beyond the usual limits of such assays
Conditions: source organism: SARS coronavirus Tor2
Reported values of pKd for individual entries
To interpret pKd, take it as minus log10 of a concentration measured in moles per litre.

Field: example entries. Status: answers known.
[
  {
    "POLYMER_SEQUENCE": "EEAIRHVRAW",
    "pKd": 8.14
  },
  {
    "POLYMER_SEQUENCE": "HEDLMAAYV",
    "pKd": 5.15
  },
  {
    "POLYMER_SEQUENCE": "HECFVKRVDW",
    "pKd": 6.52
  }
]

I'd like to know its pKd. The sequence in question is EEHFVETVSL
6.36

I'd like to know its pKd. The sequence in question is NELSLALGL
6.39

I'd like to know its pKd. The sequence in question is SELVIGAVI
6.22

* * *

Target: HLA-A*30:02
Test: IEDB peptide-MHC binding, purified MHC/competitive/radioactivity; filed as Kd, often an IC50 or EC50 that approximates it; bounds were set here for any values at or beyond the usual limits of such assays
Conditions: source organism: Mammarenavirus juninense
EXPERIMENTAL_ENDPOINT: Kd (µM)
Give your result in µM as a bare value.

I'd like to know its Kd. The sequence in question is EDAMPGVLSY
15.5

* * *

Molecular target: HLA-B*40:01
Experiment: IEDB peptide-MHC binding, purified MHC/direct/fluorescence; filed as Kd, often an IC50 or EC50 that approximates it; bounds were set here for any values at or beyond the usual limits of such assays
Conditions: source organism: Salmonella enterica subsp. enterica serovar Typhimurium
EXPERIMENTAL_ENDPOINT: Kd

I'd like to know its Kd. The sequence in question is NSDYMMWVG
≥ 20 µM

* * *

Molecular target: HLA-B*57:01
Experiment: IEDB peptide-MHC binding, purified MHC/direct/fluorescence; filed as Kd, often an IC50 or EC50 that approximates it; bounds were set here for any values at or beyond the usual limits of such assays
Conditions: source organism: Influenza B virus
pKd: −log10 of the molar value.
EXPERIMENTAL_ENDPOINT: pKd

I'd like to know its pKd. The sequence in question is KSEPEGTRM
≤ 4.70

* * *

Target: HLA-B*15:17
Experiment: IEDB peptide-MHC binding, purified MHC/direct/fluorescence; filed as Kd, often an IC50 or EC50 that approximates it; bounds were set here for any values at or beyond the usual limits of such assays
Conditions: source organism: Bacillus anthracis
EXPERIMENTAL_ENDPOINT: Kd (nM)
Give your result in nM as a bare value.

I'd like to know its Kd. The sequence in question is KLYVNGKAY
2.4

* * *

Target: HLA-A*03:01
Assay: IEDB peptide-MHC binding, purified MHC/direct/fluorescence; filed as Kd, often an IC50 or EC50 that approximates it; bounds were set here for any values at or beyond the usual limits of such assays
Settings: source organism: Burkholderia mallei ATCC 23344
EXPERIMENTAL_ENDPOINT: Kd

I'd like to know its Kd. The sequence in question is LARFPCNVI
≥ 20 µM

* * *

Biological target: HLA-B*44:02
Assay: IEDB peptide-MHC binding, purified MHC/direct/fluorescence; filed as Kd, often an IC50 or EC50 that approximates it; bounds were set here for any values at or beyond the usual limits of such assays
Conditions: source organism: Zaire ebolavirus
pKd: −log10 of the molar value.
EXPERIMENTAL_ENDPOINT: pKd

I'd like to know its pKd. The sequence in question is GHMMVIFRL
≤ 4.70

* * *

Biological target: HLA-A*02:01
Experiment: IEDB peptide-MHC binding, purified MHC/direct/fluorescence; filed as Kd, often an IC50 or EC50 that approximates it; bounds were set here for any values at or beyond the usual limits of such assays
Conditions: source organism: Orthohantavirus hantanense
pKd: −log10 of the molar value.
EXPERIMENTAL_ENDPOINT: pKd

I'd like to know its pKd. The sequence in question is IRKPKHLYV
≤ 4.70

* * *

Biological target: HLA-B*46:01
Experiment: IEDB peptide-MHC binding, purified MHC/direct/fluorescence; filed as Kd, often an IC50 or EC50 that approximates it; bounds were set here for any values at or beyond the usual limits of such assays
Details: source organism: West Nile virus
pKd: −log10 of the molar value.
EXPERIMENTAL_ENDPOINT: pKd

Write down the reported pKd of TRAVGKPLL , test system: HLA-B*46:01.
≤ 4.70

* * *

Target: HLA-A*31:01
Experiment: IEDB peptide-MHC binding, purified MHC/competitive/fluorescence; filed as Kd, often an IC50 or EC50 that approximates it; bounds were set here for any values at or beyond the usual limits of such assays
Conditions: source organism: Escherichia coli E110019
EXPERIMENTAL_ENDPOINT: pKd
To interpret pKd, take it as minus log10 of a concentration measured in moles per litre.

I'd like to know its pKd. The sequence in question is RAFWGQVQK
8.57

* * *

Biological target: HLA-A*69:01
Experiment: IEDB peptide-MHC binding, purified MHC/competitive/fluorescence; filed as Kd, often an IC50 or EC50 that approximates it; bounds were set here for any values at or beyond the usual limits of such assays
Conditions: source organism: Choclo virus
EXPERIMENTAL_ENDPOINT: Kd

I'd like to know its Kd. The sequence in question is KACDLAMCY
≥ 20 µM

* * *

Target: HLA-B*15:01
Test: IEDB peptide-MHC binding, purified MHC/direct/fluorescence; filed as Kd, often an IC50 or EC50 that approximates it; bounds were set here for any values at or beyond the usual limits of such assays
Conditions: source organism: Orthohantavirus hantanense
EXPERIMENTAL_ENDPOINT: Kd

I'd like to know its Kd. The sequence in question is IRKPKHLYV
≥ 20 µM

* * *

Biological target: HLA-A*11:01
Assay: IEDB peptide-MHC binding, purified MHC/competitive/radioactivity; filed as Kd, often an IC50 or EC50 that approximates it; bounds were set here for any values at or beyond the usual limits of such assays
Conditions: source organism: Mammarenavirus brazilense
EXPERIMENTAL_ENDPOINT: Kd

I'd like to know its Kd. The sequence in question is TALAKCNLDH
≥ 69.7 µM

* * *

Molecular target: HLA-B*08:01
Assay: IEDB peptide-MHC binding, purified MHC/competitive/radioactivity; filed as Kd, often an IC50 or EC50 that approximates it; bounds were set here for any values at or beyond the usual limits of such assays
Conditions: source organism: Vaccinia virus
EXPERIMENTAL_ENDPOINT: Kd (µM)
Give your result in µM as a bare value.

I'd like to know its Kd. The sequence in question is QTIVFIWFI
16.9

* * *

Molecular target: HLA-A*31:01
Assay: IEDB peptide-MHC binding, purified MHC/direct/fluorescence; filed as Kd, often an IC50 or EC50 that approximates it; bounds were set here for any values at or beyond the usual limits of such assays
Settings: source organism: Camelpox virus CMS
pKd: −log10 of the molar value.
EXPERIMENTAL_ENDPOINT: pKd

I'd like to know its pKd. The sequence in question is MPAYIRNTL
≤ 4.70
